Listed here: items and their measured pKd.
experimental_system: T1, monkey Trop2 protein (Sino Biological, #90893-C08H) (monkey, UniProt A0A2K5UE71 27-274)
T1 construct: bought protein; also called monkey Trop2 protein antigen (His tag)
T1 sequence: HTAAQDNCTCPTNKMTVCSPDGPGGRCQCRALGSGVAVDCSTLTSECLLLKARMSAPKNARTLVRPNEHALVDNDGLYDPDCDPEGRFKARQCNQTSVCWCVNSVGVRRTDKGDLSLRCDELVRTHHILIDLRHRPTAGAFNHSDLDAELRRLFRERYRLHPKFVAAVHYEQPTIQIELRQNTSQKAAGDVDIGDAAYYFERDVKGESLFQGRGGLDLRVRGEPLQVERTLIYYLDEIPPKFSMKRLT
measurement_description: BLI, Octet RED96, AHC sensor
Scale for pKd: -log10 of concentration given in mol/L; no unit attached.

- binder: "PR001153 (antibody, human IgG1, kappa, V domains shown, fully human IgG1/kappa; also called antibody No. (16)) VH: QVQLQESGPGLVKPSGTLSLTCAVSGGSISSSNWWSWVRQPPGKGLEWIGEIYHDGSTDYNPSLKSRVIISVDKSKNQFSLKVRSVTAADTAVYYCARDNWGFDYWGQGTLVTVSS VL: EIVLTQFPGTLSLSPGERATLSCRSSQSVSSSYLAWYQQKPGQAPRLLISGASSRATGIPDRFSGSGSGTDFTLTISRLEPEDFAVYYCQQYGSSPRTFGQGTKVEIKR"
  numeric_result: 9.74

Kindly consider the entry below.
Input: Recorded pKd for PR001158 (antibody, human IgG1, kappa, V domains shown, fully human IgG1/kappa; also called antibody No. (20)) VH: QVQLVESGGGVVQPGRSLRLSCVASGFTFSHYGMHWVRQAPGKGLEWVAVIWYDGIKKYYVESVKGRFTISRDNSKNTLNLQMNRLRAEDTAVYYCARDGGFGESNYYGLDVWGQGTTVTVSS VL: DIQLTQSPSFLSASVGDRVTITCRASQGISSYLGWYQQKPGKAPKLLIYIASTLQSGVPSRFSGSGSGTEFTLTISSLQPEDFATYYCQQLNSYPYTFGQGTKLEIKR , please?
Output: 9.15

Value source: patent US20240067748A1
